Data credit: patent US9561239B2

- Assayed System: P dimers of VA387 (GII.4) binding to saliva HBGAs (Norovirus GII.4 (Human calicivirus NLV/VA98387/1998))
- Assay Explanation: Saliva-based NoV/HBGA blocking assay
- Design: species or system Norovirus VA387 (GII.4)
- Conditions Used: IC50 Saliva A, blocking assay, type A saliva as HBGA source; mean ± standard deviation
pIC50: −log10 of the molar value.
Decide using pIC50: a value greater than or equal to 5 is rule met, a smaller one is rule not met.

[[record]]
molecule = "C[C@]12CC[C@H]3[C@@H](CCC4=C/C(=N/OCC(=O)NCC(=O)O)CC[C@@]43C)[C@@H]1CC[C@H]2O"
cat = "rule not met"

[[record]]
molecule = "C[C@]12CC[C@H](O)C=C1CC[C@@H]1C2CC[C@@]2(C)C1CC[C@@]21CCC(=O)O1 (some centres unmarked) [Compound 15]"
cat = "rule not met"

[[record]]
molecule = "C[C@]12CC[C@H](O)C=C1CC[C@@H]1C2CC[C@@]2(C)C1CC[C@@]21CCC(=O)O1 (some centres unmarked) [Compound 11]"
cat = "rule not met"

[[record]]
molecule = "CC(=O)C1=CCC2[C@@H]3CC=C4C[C@H](O)CC[C@]4(C)C3CC[C@]12C (some centres unmarked)"
cat = "rule not met"

[[record]]
molecule = "CC(=O)C1CCC2C3CC[C@H]4CC(O)CCC4(C)C3CCC12C (some centres unmarked)"
cat = "rule met"


* * *

- Assayed System: P dimers of VA387 (GII.4) binding to saliva HBGAs (Norovirus GII.4 (Human calicivirus NLV/VA98387/1998), UniProt Q913Z3)
- Sequence (Q913Z3 214-539): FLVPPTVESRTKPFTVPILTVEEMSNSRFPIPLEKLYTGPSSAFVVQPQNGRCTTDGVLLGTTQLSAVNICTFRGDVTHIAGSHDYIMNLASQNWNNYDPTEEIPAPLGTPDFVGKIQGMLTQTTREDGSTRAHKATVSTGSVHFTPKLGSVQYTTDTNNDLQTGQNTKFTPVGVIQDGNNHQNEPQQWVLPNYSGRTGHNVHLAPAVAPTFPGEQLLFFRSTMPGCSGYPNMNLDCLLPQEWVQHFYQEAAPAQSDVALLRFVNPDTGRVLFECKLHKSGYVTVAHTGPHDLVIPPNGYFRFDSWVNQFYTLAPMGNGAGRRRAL
- Assay Explanation: Saliva-based NoV/HBGA blocking assay
- Parameters: species or system Norovirus VA387 (GII.4)
- Conditions Used: blocking assay, type B saliva as HBGA source; mean ± standard deviation; read-out: IC50 Saliva B
# IC50 values compiled below
Assay Metric: IC50 (µM)

[[record]]
compound = "O=[N+]([O-])c1ccc2c(c1)C1C=CCC1C(C1CC=CCC1)N2 (stereo not drawn) [Compound 7]"
assay_metric = "IC50"
display_unit = "µM"
experimental_value = 13.1

[[record]]
compound = "Cc1noc2c1C1(C)CCC3C(CC=C4CC(O)CCC43C)C1C2 (stereo not drawn) [Compound 18]"
assay_metric = "IC50"
display_unit = "µM"
experimental_value = 34.5

[[record]]
compound = "CC12CCC3C(CCC4CC(=O)CCC43C)C1CCC2O (stereo not drawn) [Compound 19]"
assay_metric = "IC50"
display_unit = "µM"
experimental_value = 35.7

[[record]]
compound = "CC(=O)OCC(=O)C1CCC2C3CC=C4CC(O)CCC4(C)C3CCC12C (stereo not drawn) [Compound 16]"
assay_metric = "IC50"
display_unit = "µM"
experimental_value = 30.1

[[record]]
compound = "CC1CCc2c(sc3ncn(C(C)C(=O)N/N=C/c4c(O)ccc5ccccc45)c(=O)c23)C1 (stereo not drawn) [Compound 9]"
assay_metric = "IC50"
display_unit = "µM"
experimental_value = 16.8

[[record]]
compound = "CC1(C)CC(=O)C2=C(C1)c1c(ccc3ccccc13)NC2 [Compound 8]"
assay_metric = "IC50"
display_unit = "µM"
experimental_value = 14.9

[[record]]
compound = "C/C(=N/O)C1=CCC2C3CC[C@H]4C/C(=N\\O)CC[C@]4(C)C3CC[C@]12C (stereo partly drawn) [Compound 1]"
assay_metric = "IC50"
display_unit = "µM"
experimental_value = 2.54

[[record]]
compound = "C[C@]12CC[C@H](O)C[C@@H]1CC[C@@H]1[C@@H]2CC[C@@]2(C)[C@H]1CC[C@]2(C)O [Compound 3]"
assay_metric = "IC50"
display_unit = "µM"
experimental_value = 3.39

[[record]]
compound = "CC(CCC(=O)O)C1CCC2C3CC=C4CC(O)CCC4(C)C3CCC12C (stereo not drawn) [Compound 4]"
assay_metric = "IC50"
display_unit = "µM"
experimental_value = 7.65

